Target Under Test: T1, biotinylated IL-22 with an N-terminal His/FLAG tag (bio.IL-22H/F) (human, UniProt Q9GZX6 34-179, biotinylated (site not stated))
T1 construct: not shown: N-terminal His/FLAG tag
T1 sequence: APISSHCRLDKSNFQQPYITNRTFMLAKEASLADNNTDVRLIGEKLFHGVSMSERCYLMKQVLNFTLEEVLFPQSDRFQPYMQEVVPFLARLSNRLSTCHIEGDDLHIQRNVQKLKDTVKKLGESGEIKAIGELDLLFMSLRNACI
Experiment Description: IL-22 receptor complex inhibition assay (bio.IL-22H/F binding to IL-22 receptor complex, DELFIA), scFv
Experimental Endpoint: pIC50
// returns pIC50 (minus log10 of molar concentration), number only

{"Binder": "GIL16 scFv (non-germlined parent) (scFv) scFv: QVQLVESGAEVKKPGASVKVSCKASGYTFTSYGISWVRQAPGQGLEWMGWISAYTGNTNYAQKFQGRVTMTTDTSTSTAYMELRSLRSDDTAVYYCARDRGYYDAFDIWGQGTLVTVSSGGGGSGGGGSGGGGSDIQMTQSPSTLSASIGDRVTITCRASEGIYHWLAWYQQKPGKAPKLLIYKASSLASGAPSRFSGSGSGTDFTLTISSLQPDDFATYYCQQYSNYPLTFGGGTKLEIKRAAA", "pIC50": 7.31}
{"Binder": "GIL92 scFv (non-germlined parent) (scFv) scFv: QVQLVQSGAEVKKPGASVKVSCKASGYTFTDYYMHWVRQAPGQGLEWVGWINPYTGGAFYAQKFRGRVTMTRDTSINTAYMELSRLGSDDTAVYYCAREPEKFDFWGGDNWGRGTMVTVSSGGGGSGGGGSGGGGSAQAVLTQPSSVSGAPGQRVTISCTGSSSNIGAGYGVHWYQQLPGTAPKLLIYGNSNRPSGVPDRFSGSKSGTSASLAITGLQAEDEADYYCQSYDSSLSGYVFGTGTQLTVLSAAA", "pIC50": 7.80}

// next entry
Reported pIC50 for GIL45 scFv (non-germlined parent) (scFv) scFv: QMQLVQSGGGVVQPGRSLRLSCAASGFTFSNYGMYWVRQAPGKGLEWVAHIWYDGSNEKYADSVKGRMTVSRDNSRNTLYLQMNSLRAEDTAVYYCATEQHWITAFDIWGKGTLVTVSSGGGGSGAGGSGGGGSQSVLTQPASVSGSPGQSITISCTGTSSDVGGYNYVSWYQQHPGKAPKLMIYEGSKRPSGVSNRFSGSKSGNTASLTISGLQAEDEADYYCSSYTTRSTRVFGGGTKLTVLGAAAH was 6.45
